Target: UniProt P0DTD1
Assay type: binding
Conditions: ligand occupancy after refinement (phenix.refine); crystal soaking of Mac1
# strict inequality: Refined occupancy < 60 yields Y, everything else yields N

O=C(Nc1ccc(C(=O)N[C@@H]2c3cccc(O)c3C[C@H]2C(=O)O)cc1)NC1CC1 [Compound E2160]
Y
Cc1oc(C(N)=O)cc1S(=O)(=O)Nc1ccc(Br)c(C#N)c1 [Compound Z6708]
Y
Cc1nnc(CNc2cnc(N)c(Cl)n2)n1C1CC1 [ZINC000893101964]
Y
O=C(O)C1(F)CN(c2ncnc3[nH]c4cc(F)ccc4c23)CC12COC2 (centres unmarked) [LL123_0031]
Y
N#Cc1ccc(OCCn2cnc3c(N)ncnc32)cc1 [ZINC000043461211]
N

Please check: Refined occupancy for CN(c1ncnc2[nH]c3cc(F)ccc3c12)C1CCCS(=O)(=O)C1 (centres unmarked) [LRM-0010] , strictly under 60 or not?
Y

is_below(Refined occupancy, 60) for O=C(Nc1ccc(C(=O)NC2c3cccc(O)c3CC2C(=O)O)cn1)NC1CC1 (centres unmarked) [Compound Z8539_0054] ?
Y

Please check: Refined occupancy for O=C(O)C1CN(c2ncnc3[nH]c4cc(F)ccc4c23)CCC12CCC2 (centres unmarked) [LL123_0029] , strictly under 60 or not?
Y

Does O=C(NS(=O)(=O)Cc1ccc(Br)c(F)c1)c1cnn2ccccc12 [Compound Z3209] have Refined occupancy strictly under 60?
N

Consider O=C(O)CCC1CCCN(c2ncnc3[nH]c4cc(F)ccc4c23)C1 (centres unmarked) [LL1_0018] . Does its Refined occupancy lie strictly below 60?
Y

Is Refined occupancy strictly under 60 for the entry O[C@@H]1CC[C@H](Nc2ncnc3[nH]ccc23)C1 [SRH-0018] ?
Y

Is it true that Refined occupancy reported for O=C(NC1c2cccc(O)c2CC1C(=O)O)c1ccc(Nn2ccnc2)cc1 (centres unmarked) [Z8539_0011] is less than 60?
N

The reported measurements were obtained from paper PMC9926234.
